- Study target: GABAA receptors (Rattus norvegicus, UniProt P18508+P62813+P63138)
- Construct: Single pyramidal neurons from the hippocampal CA3 area or Purkinje cells from sagittal slices of the cerebellum were isolated; endogenous in cells; host or cells: acutely isolated Purkinje cells from cerebellar slices of Wistar rats, 11-14 days old
- Sequence (P62813 28-455): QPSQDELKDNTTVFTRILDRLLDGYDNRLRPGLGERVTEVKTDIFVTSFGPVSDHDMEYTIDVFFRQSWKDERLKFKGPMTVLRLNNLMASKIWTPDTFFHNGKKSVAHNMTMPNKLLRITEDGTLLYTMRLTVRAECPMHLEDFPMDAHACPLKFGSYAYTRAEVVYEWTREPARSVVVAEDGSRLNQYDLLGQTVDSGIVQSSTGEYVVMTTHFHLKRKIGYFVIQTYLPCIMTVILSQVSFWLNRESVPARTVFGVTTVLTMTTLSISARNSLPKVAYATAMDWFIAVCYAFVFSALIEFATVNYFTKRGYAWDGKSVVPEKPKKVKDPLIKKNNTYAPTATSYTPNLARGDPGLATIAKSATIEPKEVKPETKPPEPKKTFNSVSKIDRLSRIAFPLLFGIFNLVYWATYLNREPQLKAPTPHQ
- Sequence (P63138 25-474 limits assumed): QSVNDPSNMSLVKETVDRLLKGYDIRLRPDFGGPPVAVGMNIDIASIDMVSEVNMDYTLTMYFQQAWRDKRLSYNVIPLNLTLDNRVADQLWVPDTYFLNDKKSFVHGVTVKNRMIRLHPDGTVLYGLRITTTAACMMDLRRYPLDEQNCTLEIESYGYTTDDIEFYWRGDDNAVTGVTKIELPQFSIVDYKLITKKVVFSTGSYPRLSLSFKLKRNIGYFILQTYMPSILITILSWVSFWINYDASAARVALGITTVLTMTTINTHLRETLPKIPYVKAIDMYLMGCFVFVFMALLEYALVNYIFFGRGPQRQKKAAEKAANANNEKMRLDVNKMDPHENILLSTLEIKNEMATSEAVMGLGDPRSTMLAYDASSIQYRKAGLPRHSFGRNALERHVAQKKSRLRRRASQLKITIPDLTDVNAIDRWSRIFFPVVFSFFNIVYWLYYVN
- Sequence (P18508 39-466): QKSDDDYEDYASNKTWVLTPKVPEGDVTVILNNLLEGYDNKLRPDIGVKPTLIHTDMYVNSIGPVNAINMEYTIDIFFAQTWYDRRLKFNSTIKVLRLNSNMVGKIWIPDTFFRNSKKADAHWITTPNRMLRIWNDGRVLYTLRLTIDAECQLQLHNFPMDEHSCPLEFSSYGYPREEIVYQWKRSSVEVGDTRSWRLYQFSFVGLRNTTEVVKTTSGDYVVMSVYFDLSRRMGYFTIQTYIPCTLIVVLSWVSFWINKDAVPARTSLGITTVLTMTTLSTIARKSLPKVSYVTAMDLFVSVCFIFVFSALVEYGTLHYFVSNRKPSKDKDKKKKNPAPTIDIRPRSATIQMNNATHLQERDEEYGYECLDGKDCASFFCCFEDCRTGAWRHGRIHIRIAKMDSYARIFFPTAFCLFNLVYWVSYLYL
- Format: cell-based
Quick reference: τdes/τdes control of IGABA of the listed items.

// known answers, use as guide
{"Molecule": "C[C@]12CCC(=O)C[C@@H]1CC[C@@H]1[C@@H]2CC[C@]2(C)[C@@H](O)CC[C@@H]12 [Compound 3, 17β-Hydroxy-5α-androstan-3-one]", "τdes/τdes control of IGABA": "0.98 ± 0.02"}
{"Molecule": "C[C@]12CCC(=O)C[C@H]1CC[C@@H]1[C@@H]2CC[C@]2(C)C(=O)CC[C@@H]12 [Compound 9, 5β-Androstane-3,17-dione]", "τdes/τdes control of IGABA": "0.97 ± 0.03"}
{"Molecule": "C[C@]12CC[C@H](O)C[C@@H]1CC[C@@H]1[C@@H]2CC[C@]2(C)C(=O)CC[C@@H]12 [Compound 4, 3β-Hydroxy-5α-androstan-17-one]", "τdes/τdes control of IGABA": "0.80 ± 0.03"}
{"Molecule": "C[C@]12CC[C@H]3[C@@H](CC=C4C[C@@H](O)CC[C@@]43C)[C@@H]1CC[C@@H]2O [Compound 7, 3β,17β-Androst-5-ene-3,17-diol]", "τdes/τdes control of IGABA": "0.98 ± 0.02"}

Next up:
Need τdes/τdes control of IGABA, item C[C@]12CCC(=O)C[C@@H]1CC[C@@H]1[C@@H]2CC[C@]2(C)C(=O)CC[C@@H]12 [Compound 6, 5α-Androstane-3,17-dione]
0.99 ± 0.02

====

Quick reference: pIC50 of the listed items.
- Test system: glycine receptor (GlyR)
- Protocol description: Glycine-induced chloride current (IGly), whole-cell patch-clamp in isolated pyramidal neurons of the rat hippocampus
- Type: cell-based
- Test settings: read-out: Ipeak IC50 of IGly; inhibition of peak amplitude; 100 μM glycine
// scale note: pIC50 = -log10(conc_M); give the bare number

// known answers, use as guide
{"Molecule": "C[C@]12CCC(=O)C[C@@H]1CC[C@@H]1[C@@H]2CC[C@]2(C)C(=O)CC[C@@H]12", "Result value": 4.79}
{"Molecule": "C[C@]12CCC(=O)C[C@@H]1CC[C@@H]1[C@@H]2CC[C@]2(C)[C@@H](O)CC[C@@H]12 [Compound 3, 17β-Hydroxy-5α-androstan-3-one]", "Result value": 4.70}

Next up:
Need pIC50, item `C[C@]12CCC(=O)C=C1CC[C@@H]1[C@@H]2CC[C@]2(C)C(=O)CC[C@@H]12`
4.74

====

- System: glycine receptor (GlyR)
- Protocol description: Glycine-induced chloride current (IGly), whole-cell patch-clamp in isolated pyramidal neurons of the rat hippocampus
- Format: cell-based
- Test settings: 0.1 μM of steroid; 100 μM glycine; mean ± SEM, normalized
Please note: YES applies when τdes/τdes control of IGly is 0.7 or greater, and NO applies otherwise.

{"Compound": "C[C@]12CC[C@H](O)C[C@@H]1CC[C@@H]1[C@@H]2CC[C@]2(C)C(=O)CC[C@@H]12 [Compound 4, 3β-Hydroxy-5α-androstan-17-one]", "Label class": "NO"}
{"Compound": "C[C@]12CCC(=O)C[C@@H]1CC[C@@H]1[C@@H]2CC[C@]2(C)C(=O)CC[C@@H]12 [Compound 6, 5α-Androstane-3,17-dione]", "Label class": "NO"}
{"Compound": "C[C@]12CC[C@H]3[C@@H](CCC4=CC(=O)CC[C@@]43C)[C@@H]1CC[C@H]2O [Compound 5, 17α-Hydroxyandrost-4-en-3-one]", "Label class": "NO"}
{"Compound": "C[C@]12CCC(=O)C=C1CC[C@@H]1[C@@H]2CC[C@]2(C)C(=O)CC[C@@H]12 [Compound 2, Androst-4-en-3,17-dione]", "Label class": "YES"}

Quick check, τdes/τdes control of IGly >= 0.7? C[C@]12CC[C@H](O)CC1=CC[C@@H]1[C@@H]2CC[C@]2(C)C(=O)CC[C@@H]12 [Compound 8, 3β-Hydroxy-androst-5-en-17-one]
NO
